- Experiment notes: Plasma stability, mouse plasma
- Type: in vitro ADME
- Conditions used: Table 2A, 37 °C, read-out: Plasma Stability Mouse t1/2
Reported half-life is given for each of the following compounds.

[
  {
    "Smiles repr": "[2H]C([2H])([2H])N(CC(=O)O)C(=N)NC(=O)c1cccnc1",
    "half-life": "> 3 h"
  },
  {
    "Smiles repr": "Cl.[2H]C([2H])([2H])N(CC(=O)OC(C)(C)C)C(=N)NC(=O)CCCCCCCCCC",
    "half-life": "0.133 h"
  },
  {
    "Smiles repr": "[2H]C([2H])([2H])N(CC(=O)OCC)C(=N)NC(=O)CCCCCCCCCCCC",
    "half-life": "< 0.0833 h"
  },
  {
    "Smiles repr": "[2H]C([2H])([2H])N(CC(=O)[O-])C(=N)NC(=O)CCCCCCCCCC.[K+]",
    "half-life": "> 3 h"
  },
  {
    "Smiles repr": "Cl.[2H]C([2H])([2H])N(CC(=O)OCC)C(=N)NC(=O)CCCCCCCCCC",
    "half-life": "< 0.0833 h"
  },
  {
    "Smiles repr": "[2H]C([2H])([2H])N(CC(=O)[O-])C(=N)NC(=O)CCCCCCCC.[Li+]",
    "half-life": "> 3 h"
  },
  {
    "Smiles repr": "[2H]C([2H])([2H])N(CC(=O)O)C(=N)NC(=O)CCCCCCC/C=C\\CCCCCC",
    "half-life": "> 3 h"
  },
  {
    "Smiles repr": "[2H]C([2H])([2H])N(CC(=O)[O-])C(=N)NC(=O)CCCCCC.[Na+]",
    "half-life": "> 3 h"
  },
  {
    "Smiles repr": "[2H]C([2H])([2H])N(CC(=O)[O-])C(=N)NC(=O)CCCCCCCCCCC.[Na+]",
    "half-life": "> 3 h"
  },
  {
    "Smiles repr": "[2H]C([2H])([2H])N(CCO)C(=N)NC(=O)CCCCCCCCCC",
    "half-life": "0.55 h"
  }
]

Ask | Please give the measured half-life for this compound: `[2H]C([2H])([2H])N(CC(=O)[O-])C(=N)NC(=O)CCC/C=C\C/C=C\C/C=C\C/C=C\CCCCC.[Na+]`
Reply | > 3 h

Ask | Please give the measured half-life for this compound: `[2H]C([2H])([2H])N(CC(=O)O)C(=NC(=O)OC(C)(C)C)NC(=O)CCCCCCCCCC`
Reply | > 3 h

###

- Experiment notes: Chemical stability in simulated gastric fluid (SGF) without pepsin
- Format: physicochemical
- Conditions used: Table 2B, 50 μM prodrug
Experimental endpoint: Chemical Stability SGF, no enzyme % T0 at 2 hours at 37 °C. (%)

A. [2H]C([2H])([2H])N(CC(=O)[O-])C(=N)NC(=O)CCCCCCCCCCCO.[Na+]
B. Cl.[2H]C([2H])([2H])N(CC(=O)OC(C)(C)C(F)(F)F)C(=N)NC(=O)CCCCCCCCCC
Ask | Please state the entry with greater Chemical Stability SGF, no enzyme % T0 at 2 hours at 37 °C. among A and B . Identify your selection by its label.
Reply | A

###

- Experiment notes: Liver microsome stability, human
- Format: in vitro ADME
- Conditions used: liver microsomes, pH 7.4, Table 2A, read-out: Microsome Stability Human t1/2
Experimental endpoint: half-life at 10 μM (h)

Below, each entry is followed by its recorded half-life at 10 μM result.
[
  {
    "Smiles repr": "[2H]C([2H])([2H])N(CC(=O)[O-])C(=N)NC(=O)CCC/C=C\\C/C=C\\C/C=C\\C/C=C\\CCCCC.[Na+]",
    "Readout value": 0.4
  },
  {
    "Smiles repr": "[2H]C([2H])([2H])N(CC(=O)[O-])C(=N)NC(=O)CCCCCCC.[Li+]",
    "Readout value": 1.9
  }
]

P. [2H]C([2H])([2H])N(CC(=O)[O-])C(=N)NC(=O)CCCCCCCCCC.[Na+]
Q. [2H]C([2H])([2H])N(CC(=O)[O-])C(=N)NC(=O)CCCCCC.[Na+]
Ask | Please state the entry with greater half-life at 10 μM among P and Q . Identify your selection by its label.
Reply | Q
(Q: 10.8 h, P: 1.83 h)
